# Test system: Wolbachia pipientis
# PROTOCOL_SUMMARY: Anti-Wolbachia Cell-Based Screen
# Type: functional
# Parameters: scale not given: in the data most compounds retested in dose-response had high values
# EXPERIMENTAL_PARAMETERS: 5 µM
The whole screen tested about 48,000 compounds, of which about 13,000 (27%) showed an effect of 50% or more. Some of the results follow.
A collection of molecules and their measured Percent Effect
Respond numerically; units are % and should not be typed.

>>> measured("Cc1n[nH]c(C)c1CN(C)C(C(=O)O)c1c(F)cccc1OC(C)C (configuration not stated)")
-15.01
>>> measured("N#Cc1ccc(N2CCCC2Cn2cncn2)nc1 (configuration not stated)")
6.543
>>> measured("Cc1nc(O)cc(C2CCCN(C(=O)CN(C)c3ccccc3)C2)n1 (configuration not stated)")
1.624
>>> measured("CCc1nc2c(NCC3COc4ccccc4C3)ncnc2o1 (configuration not stated)")
-41.62
>>> measured("O=C(CC1OCCc2ccccc21)NCC1(O)CCCCC1 (configuration not stated)")
-10.96

// assay Wolbachia pipientis, entry CN1CCC(Cc2noc(CCc3nc4ccccc4nc3O)n2)CC1 , Percent Effect value = -2.649

// assay Wolbachia pipientis, entry CS(=O)(=O)NCCCNc1ccc(C(F)(F)F)cc1C#N , Percent Effect value = -7.983

// assay Wolbachia pipientis, entry O=C(CCc1ccccn1)N1CCCC1 , Percent Effect value = 132.5

// assay Wolbachia pipientis, entry O=C(O)C(c1ccc2[nH]ccc2c1)N1CCN(c2cnccn2)CC1 (configuration not stated) , Percent Effect value = -11.7

// assay Wolbachia pipientis, entry O=C(CCc1ccccn1)N1CCSC2(CCCCC2)C1 , Percent Effect value = -3.003

// assay Wolbachia pipientis, entry CC(C)NC(=O)C[C@H]1[C@H]2CN(C(=O)Cc3ccccn3)C[C@@H]12.O=C(O)C(F)(F)F , Percent Effect value = 0.3737

// assay Wolbachia pipientis, entry COc1cc(F)c(C(=O)NCc2cc(C)on2)c(F)c1 , Percent Effect value = -19.16

====

# Tested on: Wolbachia pipientis
# PROTOCOL_SUMMARY: Anti-Wolbachia Cell-Based Screen
# Assay type: functional
# Set-up: scale not given: in the data most compounds retested in dose-response had high values
# EXPERIMENTAL_PARAMETERS: 5 µM
In all, about 48,000 compounds went through this assay and about 13,000 (27%) showed an effect of 50% or more. Some of the results follow.
A collection of molecules and their measured Percent Effect
Respond numerically; units are % and should not be typed.

>>> measured("N#Cc1cccnc1NCc1ccc(S(=O)(=O)NC2CC2)cc1")
-3.149
>>> measured("CN(CC(=O)N1CC(Oc2ccccc2Cl)C1)Cc1ccncc1")
-2.119
>>> measured("Cn1nc(C(=O)N2CCCC(n3cncn3)C2)ccc1=O (centres undefined)")
-5.25
>>> measured("Cc1cc(N2CCC(Cc3ncccn3)C2)ncn1 (centres undefined)")
90.07
>>> measured("Cc1cnc(C(=O)N2CCCC(n3cncn3)C2)cn1 (centres undefined)")
95.37
>>> measured("CC(C)NC(=O)c1cc2c(nc1N(C)C)CCN(S(=O)(=O)C1CC1)CC2")
-5.433
>>> measured("CCC(CC)c1cc(C(=O)N2CCCC(n3cncn3)C2)on1 (centres undefined)")
-3.018
>>> measured("CCC(C)S(=O)(=O)N1CCc2nc(C3CCNCC3)ncc2C1.Cl (centres undefined)")
105.9
>>> measured("Cc1nc(N2CCCC2)nc2c1CN(C(C)C)CC2.O=C(O)C(F)(F)F")
-22.93
>>> measured("CC1CN(c2ccc(CNC(=O)NCCO)cn2)CCO1 (centres undefined)")
-1.494

Reported Percent Effect of CCN(CC)S(=O)(=O)N1CCCC(c2nccn2Cc2ccncc2)C1 (centres undefined) : 6.265

Reported Percent Effect of Cn1cnc2cc(C(=O)N3CCN(CCO)[C@@H]4CS(=O)(=O)C[C@@H]43)ccc21 : -4.245

Reported Percent Effect of Cc1cc(N2CCCC2c2cnccn2)ncn1 (centres undefined) : -8.281

Reported Percent Effect of CCn1cc(Cn2cc(-c3cccc(C(C)N(C)C)c3)nn2)cn1 (centres undefined) : -0.05647

Reported Percent Effect of CCc1ccc(C(=O)N2CCCC(n3cncn3)C2)o1 (centres undefined) : -14.61

Reported Percent Effect of Cc1c(C(=O)N2CCCC(n3cncn3)C2)cnn1C (centres undefined) : 111.3

Reported Percent Effect of CN1CCN(c2cc(NC(=O)c3cnccn3)ncn2)CC1 : -2.529

====

# Test system: Wolbachia pipientis
# PROTOCOL_SUMMARY: Anti-Wolbachia Cell-Based Screen
# Assay type: functional
# Parameters: scale not given: in the data most compounds retested in dose-response had high values
# EXPERIMENTAL_PARAMETERS: 5 µM
Hit rate of the full screen: of about 48,000 compounds, about 13,000 (27%) showed an effect of 50% or more. This is one part of the list.
MEASURED_PROPERTY: Percent Effect (%)
Respond numerically; units are % and should not be typed.

Answered examples (4):
>>> measured("Cc1cccc(NC(=O)CCNCc2c(C)nn(C)c2N(C)C)n1")
-6.985
>>> measured("CCCN1CCC(NCc2cccc(CN3CCOC(C)C3)c2)CC1 (stereo unspecified)")
27.7
>>> measured("CCC(Nc1ccc(Oc2ccc(C#N)cc2OC)cc1)C(N)=O (stereo unspecified)")
-15.11
>>> measured("CN(C)C(=O)NCc1ncn2c1CN(Cc1cccs1)CCC2.O=C(O)C(F)(F)F.O=C(O)C(F)(F)F")
0.9692

Reported Percent Effect of O=C(O)C(F)(F)F.O=C1CCCN1Cc1ncn2c1CN(C(=O)N1CCCC1)CCC2 : 106.2

Reported Percent Effect of c1cncc(-c2c[nH]c([C@@H]3COCCN3Cc3ccncc3)n2)c1 : -1.952

Reported Percent Effect of Cc1nn(C)c(N(C)C)c1CNCCC(=O)NC1CCCCC1 : 122.8

Reported Percent Effect of Cc1nn2c(N3CCC(C(N)=O)CC3)cc(-c3ccccc3)nc2c1C : 0.08495

Reported Percent Effect of CC(C)c1nn(C)c(N(C)C)c1CNCCC(=O)NC1CCCCC1 : 102.1

Reported Percent Effect of CC(C)c1nn(C)c(N(C)C)c1CNCCC(=O)NC1CCCC1 : -3.602

Reported Percent Effect of Cc1cccc(NC(=O)N2CCCn3cnc(CN4CCCC4)c3C2)c1.O=C(O)C(F)(F)F : -10.04

====

# Test system: Wolbachia pipientis
# PROTOCOL_SUMMARY: Anti-Wolbachia Cell-Based Screen
# Type: functional
# Set-up: scale not given: in the data most compounds retested in dose-response had high values
# EXPERIMENTAL_PARAMETERS: 5 µM
Screen size: about 48,000 compounds; about 13,000 (27%) showed an effect of 50% or more. This is one part of the list.
MEASURED_PROPERTY: Percent Effect (%)
Respond numerically; units are % and should not be typed.

>>> measured("CC(C)C(=O)N1CCC2(COCc3cnc(-c4cccnc4)nc32)C1 (stereo not drawn)")
110.7
>>> measured("CC(C)c1cc(C(=O)N2C[C@H]3CC[C@@H]2CN(Cc2ccccn2)C3)no1")
-1.053

// assay Wolbachia pipientis, entry Cc1cccc(C2CCCCCN2Cc2cn(C)nc2C)c1 (stereo not drawn) , Percent Effect value = 99.27

// assay Wolbachia pipientis, entry CCC(CC(=O)NS(=O)(=O)C(C)C)c1ccccc1 (stereo not drawn) , Percent Effect value = 10.71

// assay Wolbachia pipientis, entry CS(=O)(=O)c1ccc(CN2CCCCC2c2cccc(F)c2)cc1 (stereo not drawn) , Percent Effect value = 5.873

// assay Wolbachia pipientis, entry COC(=O)CCN1CCCC1c1ccccc1Cl (stereo not drawn) , Percent Effect value = -1.683

// assay Wolbachia pipientis, entry N#CCCN(C(=O)CN1CCCC1c1ccccc1Cl)c1ccccc1 (stereo not drawn) , Percent Effect value = -18.96

====

# System: Wolbachia pipientis
# PROTOCOL_SUMMARY: Anti-Wolbachia Cell-Based Screen
# Type: functional
# Parameters: scale not given: in the data most compounds retested in dose-response had high values
# EXPERIMENTAL_PARAMETERS: 5 µM
About 13,000 (27%) of roughly 48,000 compounds showed an effect of 50% or more. This is one part of the list.
MEASURED_PROPERTY: Percent Effect (%)
Respond numerically; units are % and should not be typed.

Answered examples (3):
>>> measured("CN(C)Cc1cnc2n1CCN(C(=O)Cc1cccc(F)c1)CC2.O=C(O)C(F)(F)F")
-14.88
>>> measured("CC(C)N(C)Cc1cnc2n1CCN(Cc1cccc(F)c1)C2.O=C(O)C(F)(F)F.O=C(O)C(F)(F)F")
118.2
>>> measured("O=c1cc(Cn2ccnc2)nc2n1CCCN(CC1CCOCC1)C2")
-2.581

Query compound follows.
Reported Percent Effect of CN(Cc1ccco1)Cc1cnc2n1CCN(S(C)(=O)=O)CC2.O=C(O)C(F)(F)F : 3.882
